assayTarget: CA IX (Homo sapiens)
experimentalProtocol: biochemical
condition: library compounds with IDs A… and B…; from observed Ki (nM)
propertyLabel: log10 of Ki in nM

{"columns": ["smiles", "propertyLabel", "experimentalResult"],
 "data": [
  ["NS(=O)(=O)c1ccc(-n2cc(CO[C@@H]3O[C@H](COCc4ccccc4)[C@@H](OCc4ccccc4)[C@H]3OCc3ccccc3)nn2)cc1", "log10 of Ki in nM", 1.924],
  ["COc1ccc2c(c1)/C(=N\\c1ccc(NC(=O)Nc3ccc(S(N)(=O)=O)cc3)cc1)C(=O)N2", "log10 of Ki in nM", 0.929],
  ["NS(=O)(=O)c1ccc(NC(=O)c2ccc(/N=C3\\C(=O)Nc4ccc(F)cc43)cc2)cc1", "log10 of Ki in nM", 0.699],
  ["CC1(C)CC(=O)C2=C(C1)N(c1ccc(S(N)(=O)=O)cc1)C1=C(C(=O)CC(C)(C)C1)C2c1cccc([N+](=O)[O-])c1", "log10 of Ki in nM", 2.623],
  ["COc1ccc2c(c1)/C(=N\\NC(=O)c1cnn(-c3ccc(S(N)(=O)=O)cc3)c1-c1ccccc1)C(=O)N2", "log10 of Ki in nM", 0.519],
  ["O=C1NS(=O)(=O)c2cc([N+](=O)[O-])ccc21", "log10 of Ki in nM", 1.981],
  ["CCCN(CCC)S(=O)(=O)c1ccc(C(=O)N[C@@H](CCSC)C(N)=O)cc1", "log10 of Ki in nM", 1.301],
  ["O=S1(=O)C=Cc2cc(-n3nncc3-c3cccc(C(F)(F)F)c3)ccc2O1", "log10 of Ki in nM", 0.982]
]}
